Molecular target: glucosylceramide synthase (Homo sapiens)
Construct: Microsomes were isolated from A375 human melanoma cells; endogenous in cells
Assay: microsomal assay measuring conversion of ceramide to glucosylceramide by HPLC (GCS IC50)
Settings: concentration causing 50% inhibition of glucosylceramide synthase activity
pIC50: −log10 of the molar value.
Is pIC50 at least 7? Then label 1. If not, label 0.

Take a look at these entries with their results.
>>> df
                                   compound  category_label
0  CC(C)(NC(=O)NC1(C)CCN2CCC1CC2)c1ccc(-c2ccc(OCCn3ccnn3)cc2)cc1 (centres unmarked)         label 1
1  CNC(=O)c1ccc(-c2ccc(C(C)(C)NC(=O)NC3(C)CCN4CCC3CC4)cc2)cc1 (centres unmarked)         label 1
2  CC1(NC(=O)N2CCN(c3ccc(-c4ccccc4)cc3)CC2)CN2CCC1CC2 (centres unmarked)         label 0
3  COCc1ccc(-c2ccnc(N3CCC(F)(C(=O)N[C@]4(C)CN5CCC4CC5)CC3)n2)cc1         label 1
4  CC(C)(NC(=O)OC1CN2CCC1CC2)c1ccc(-c2ccc(OCCC3COC3)cc2)cc1 (centres unmarked)         label 1

query: Determine whether this compound has pIC50 no lower than 7: CC1(NC(=O)C2CCN(c3ccc(-c4ccccc4)cc3)CC2)CN2CCC1CC2 (centres unmarked)
result: label 0

---

Entries and their measured pIC50 follow.
Target: glucosylceramide synthase (Homo sapiens, UniProt Q16739)
Construct: Microsomes were isolated from A375 human melanoma cells; endogenous in cells
Sequence (Q16739 1-394): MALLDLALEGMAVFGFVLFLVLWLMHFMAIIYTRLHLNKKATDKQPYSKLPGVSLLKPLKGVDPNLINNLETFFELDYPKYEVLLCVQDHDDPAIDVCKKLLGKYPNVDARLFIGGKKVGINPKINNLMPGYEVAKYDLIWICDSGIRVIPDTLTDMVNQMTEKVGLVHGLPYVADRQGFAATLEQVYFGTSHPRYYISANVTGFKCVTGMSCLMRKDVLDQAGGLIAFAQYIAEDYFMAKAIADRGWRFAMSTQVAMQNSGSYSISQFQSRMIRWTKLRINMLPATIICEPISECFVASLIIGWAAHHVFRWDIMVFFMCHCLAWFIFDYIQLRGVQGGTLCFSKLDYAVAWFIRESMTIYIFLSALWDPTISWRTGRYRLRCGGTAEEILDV
Assay: microsomal assay measuring conversion of ceramide to glucosylceramide by HPLC (GCS IC50)
Conditions: concentration causing 50% inhibition of glucosylceramide synthase activity
Method: Inhibition of glucosylceramide synthase activity for certain compounds of the invention were measured with 1) a microsomal assay that directly measures the conversion of ceramide to glucosylceramide by HPLC and 2) second, cell based, phenotypic assay that monitors cell surface expression of the downstream lipid GM3 by antibody mediated immunofluorescence. The cell based assay was performed in two different cell types, B16 and C32. Cell viability was also assessed in the second, cell-based assay. […]
// field semantics: pIC50 = negative decimal log of concentration (mol/L)

Take a look at these entries with their results.
>>> df
                                   compound  measured_number
0  COCCOCc1ccc(-c2ccc(C(C)(C)NC(=O)NC3(C)CN4CCC3CC4)cc2)cc1 (stereo not shown) [Example 198]             7.60
1  O=C(N[C@@H]1CN2CCC1CC2)C1(F)CCN(c2nccc(-c3ccc(OCCF)cc3)n2)CC1 [Example 88]             8.77
2  CC(C)(NC(=O)NC1(C)CCN2CCC1CC2)c1cccc(Oc2cccc(C(=O)N3CCOCC3)c2)c1 (stereo not shown) [Example 276]             7.70

Next compound, pIC50 to be filled in.
query: Identify pIC50 associated with the compound CC1CN(C(=O)NC2(C)CCN3CCC2CC3)CCN1c1cccc(-c2ccccc2)c1 (stereo not shown) [Example 31]
result: 8.39

---

Entries and their measured pIC50 follow.
System: B16 mouse melanoma cells
Test: cell viability in the B16 cell-based assay (Viability, B16 IC50)
Details: Mus musculus, B16, read-out: Viability, B16 IC50
Protocol: The cell based assay was performed in two different cell types, B16 and C32. Cell viability was also assessed in the second, cell-based assay. The “Compound Number” in the table corresponds to the compound disclosed in the Example of the same number. […] The results of the cell based assays (performed in two different cell systems, i.e. B16 mouse melanoma or C32 human melanoma cells) are expressed as “GM3 B16 IC50” or “GM3 C32 IC50” for the B16 assay and the C32 assay, respectively. […]
pIC50: −log10 of the molar value.

query: Identify pIC50 associated with the molecule CC(C)(NC(=O)OC1CN2CCC1CC2)c1ccc(-c2ccc(C(=O)N3CC(F)(F)C3)cc2)cc1 (stereo not shown)
result: ≤ 5.00

query: Identify pIC50 associated with the molecule CC(C)(C)CCS(=O)(=O)c1ccc(-c2ccc(C(C)(C)NC(=O)OC3CN4CCC3CC4)cc2)cc1 (stereo not shown)
result: 5.17

query: Identify pIC50 associated with the molecule COCCCOc1ccc(-c2nc(C(C)(C)NC(=O)OC3CN4CCC3CC4)cs2)cc1 (stereo not shown)
result: ≤ 5.00

---

System: C32 human melanoma cells
Assay: cell viability in the C32 cell-based assay (Viability, C32 IC50)
Details: Homo sapiens; C32 cells; concentration causing 50% cell death; values greater than 10 represent a lack of cell death; read-out: Viability, C32 IC50
parameter_measured: IC50

query: Identify IC50 associated with the molecule O=C(NC1CCN2CCC1CC2)N1CCN(c2ccccc2)CC1 (stereo not shown)
result: ≥ 10 µM

---

System: GM3 expression on the cell surface, B16 mouse melanoma cells
Test: cell based phenotypic assay, cell surface GM3 by antibody mediated immunofluorescence, B16 (GM3 B16 IC50)
Conditions: Mus musculus, B16 mouse melanoma cells; 50% inhibition of GM3 expression on the cell surface; read-out: GM3 B16 IC50
Entries and their measured IC50 follow.
Respond numerically; units are nM and should not be typed.

In [3]: df
Out[3]:
                                   molecule                                    target  measured_number
0  CN(C)C(=O)c1ccc(-c2ccc(C(C)(C)NC(=O)N3CCN4CCC3CC4)cc2)cc1  GM3 expression on the cell surface, B16 mouse melanoma cells             1640
1  CC1(NC(=O)C2(F)CCN(c3cnc(Oc4ccc(F)cc4)cn3)CC2)CN2CCC1CC2 (centres unmarked)  GM3 expression on the cell surface, B16 mouse melanoma cells              467
2  COCCOc1ccc(-c2ccc(C(C)(C)NC(=O)OC3CCN4CCC3CC4)cc2)nc1 (centres unmarked)  GM3 expression on the cell surface, B16 mouse melanoma cells              145
3  COCCCOc1ccc(-c2ccc(C3(NC(=O)OC4CCN5CCC4CC5)CC3)cc2)cc1 (centres unmarked)  GM3 expression on the cell surface, B16 mouse melanoma cells             67.9
4  CN(C)C(=O)c1ccc(-c2ccc(C(C)(C)NC(=O)NC3(C)CN4CCC3CC4)cc2)cc1 (centres unmarked)  GM3 expression on the cell surface, B16 mouse melanoma cells             2340
5  COCCOCc1ccc(-c2ccc(C(C)(C)NC(=O)OC3CCN4CCC3CC4)cc2)cc1 (centres unmarked)  GM3 expression on the cell surface, B16 mouse melanoma cells              220

query: Identify IC50 associated with the molecule O=C(N[C@@H]1CN2CCC1CC2)C1(F)CCN(c2nccc(-c3ccc(OCCF)cc3)n2)CC1
result: 56.8

query: Identify IC50 associated with the molecule CC1(NC(=O)C2CCN(c3ncnc(-c4ccc(F)cc4)n3)CC2)CCN2CCC1CC2 (centres unmarked)
result: 162

---

Entries and their measured IC50 follow.
Tested on: GM3 expression on the cell surface, B16 mouse melanoma cells
Assay: cell based phenotypic assay, cell surface GM3 by antibody mediated immunofluorescence, B16 (GM3 B16 IC50)
Conditions: Mus musculus, B16 mouse melanoma cells; 50% inhibition of GM3 expression on the cell surface; read-out: GM3 B16 IC50
Method: The cell based assay was performed in two different cell types, B16 and C32. Cell viability was also assessed in the second, cell-based assay. The “Compound Number” in the table corresponds to the compound disclosed in the Example of the same number. […] The results of the cell based assays (performed in two different cell systems, i.e. B16 mouse melanoma or C32 human melanoma cells) are expressed as “GM3 B16 IC50” or “GM3 C32 IC50” for the B16 assay and the C32 assay, respectively. […]
Respond numerically; units are nM and should not be typed.

In [3]: df
Out[3]:
                                   compound                                    target  parameter_measured  result_unit  measured_number
0  COCCOc1ccc(-c2ccnc(N3CCC(F)(C(=O)NC4(C)CN5CCC4CC5)CC3)n2)cc1 (stereo not shown) [Example 85]  GM3 expression on the cell surface, B16 mouse melanoma cells                IC50           nM             79.9
1  CC(C)(NC(=O)NC1(C)CCN2CCC1CC2)c1ccc(Oc2ccc(C(=O)N3CCOCC3)cc2)cc1 (stereo not shown) [Example 281]  GM3 expression on the cell surface, B16 mouse melanoma cells                IC50           nM              440
2  CCCC1(NC(=O)NC(C)(C)c2ccc(-c3ccc(S(=O)(=O)CCCOC)cc3)cc2)CN2CCC1CC2 (stereo not shown) [Example 244]  GM3 expression on the cell surface, B16 mouse melanoma cells                IC50           nM             34.1

query: Identify IC50 associated with the compound CCCC1(NC(=O)NC(C)(C)c2ccc(-c3ccc(S(=O)(=O)CC4(COC)CC4)cc3)cc2)CN2CCC1CC2 (stereo not shown) [Example 251]
result: 47.5

query: Identify IC50 associated with the compound CCC1(NC(=O)NC(C)(C)c2ccc(-c3ccc(S(C)(=O)=O)cc3)cc2)CN2CCC1CC2 (stereo not shown) [Example 236]
result: 74.4

query: Identify IC50 associated with the compound CCC1(NC(=O)NC(C)(C)c2ccc(-c3ccc(S(=O)(=O)CC4CC4)cc3)cc2)CN2CCC1CC2 (stereo not shown) [Example 239]
result: 28.5

query: Identify IC50 associated with the compound CC(C)(C)CCS(=O)(=O)c1ccc(-c2ccc(C(C)(C)NC(=O)NC3(C)CN4CCC3CC4)cc2)cc1 (stereo not shown) [Example 246]
result: 11.4
